The measured values listed here are drawn from the supplement of paper PMC9112550.

Test system: Escherichia coli TOP10
assay_name: shrunken log2 fold change of peptide-encoding DNA abundance (4.5 h post-induction vs induction); higher = less antimicrobial activity (less host growth inhibition)
stated_conditions: time post-induction: 4.5 h; library: site-saturation at positions 5, 18, 19, 20
property_measured: shrunken log2 fold change
Write the number on its own, no unit after it.

Would you please look over these solved cases?
{"sequence_chain": "RRIRWRPPRLPRPRPRPPVRPRP", "system_tested": "Escherichia coli TOP10", "shrunken log2 fold change": 0.108}
{"sequence_chain": "RRIRLRPPRLPRPRPRPEQMPRP", "system_tested": "Escherichia coli TOP10", "shrunken log2 fold change": 0.126}
{"sequence_chain": "RRIRHRPPRLPRPRPRPDCHPRP", "system_tested": "Escherichia coli TOP10", "shrunken log2 fold change": 0.0149}

Input: Requested read-out shrunken log2 fold change, target or system Escherichia coli TOP10, entry `RRIRMRPPRLPRPRPRPWCAPRP`
Output: 0.204

Input: Requested read-out shrunken log2 fold change, target or system Escherichia coli TOP10, entry `RRIRNRPPRLPRPRPRPCKCPRP`
Output: 0.00489

Input: Requested read-out shrunken log2 fold change, target or system Escherichia coli TOP10, entry `RRIRFRPPRLPRPRPRPPCEPRP`
Output: 0.409

Input: Requested read-out shrunken log2 fold change, target or system Escherichia coli TOP10, entry `RRIRPRPPRLPRPRPRPRPIPRP`
Output: 0.27

----------
Below: a set of entries, each annotated with reported shrunken log2 fold change.
Tested on: Escherichia coli TOP10
assay_name: shrunken log2 fold change of peptide-encoding DNA abundance (4.5 h post-induction vs induction); higher = less antimicrobial activity (less host growth inhibition)
stated_conditions: time post-induction: 4.5 h; library: site-saturation at positions 5, 18, 19, 20

Would you please look over these solved cases?
{"sequence_chain": "RRIRLRPPRLPRPRPRPHWWPRP", "shrunken log2 fold change": 0.148}
{"sequence_chain": "RRIRPRPPRLPRPRPRPYMGPRP", "shrunken log2 fold change": -0.659}
{"sequence_chain": "RRIRTRPPRLPRPRPRPPIDPRP", "shrunken log2 fold change": -0.231}
{"sequence_chain": "RRIRRRPPRLPRPRPRPLRSPRP", "shrunken log2 fold change": 0.531}
{"sequence_chain": "RRIRARPPRLPRPRPRPLIEPRP", "shrunken log2 fold change": 0.388}
{"sequence_chain": "RRIRDRPPRLPRPRPRPWFVPRP", "shrunken log2 fold change": -0.18}

Input: For the sequence shown here, `RRIRFRPPRLPRPRPRPQFKPRP` , give the reported shrunken log2 fold change.
Output: -0.217

Input: For the sequence shown here, `RRIRLRPPRLPRPRPRPEWWPRP` , give the reported shrunken log2 fold change.
Output: 0.124

----------
System: Escherichia coli TOP10;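 further: peptides expressed intracellularly from a pBAD plasmid library in pooled LB shake-flask culture, induced with 0.3% L-arabinose, DNA abundance read by NGS, three biological replicates, DESeq2 with apeglm shrinkage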
assay_name: shrunken log2 fold change of peptide-encoding DNA abundance (4.5 h post-induction vs induction); higher = less antimicrobial activity (less host growth inhibition)
stated_conditions: time post-induction: 4.5 h; library: site-saturation at positions 5, 18, 19, 20
Below: a set of entries, each annotated with reported shrunken log2 fold change.

Would you please look over these solved cases?
{"sequence_chain": "RRIRSRPPRLPRPRPRPSMSPRP", "shrunken log2 fold change": 0.0307}
{"sequence_chain": "RRIRLRPPRLPRPRPRPSFLPRP", "shrunken log2 fold change": -0.562}
{"sequence_chain": "RRIRVRPPRLPRPRPRPSAMPRP", "shrunken log2 fold change": 0.0604}
{"sequence_chain": "RRIRIRPPRLPRPRPRPFPAPRP", "shrunken log2 fold change": -0.299}
{"sequence_chain": "RRIRRRPPRLPRPRPRPWHWPRP", "shrunken log2 fold change": 0.183}

Input: For the sequence shown here, `RRIRMRPPRLPRPRPRPLTFPRP` , give the reported shrunken log2 fold change.
Output: -0.291

Input: For the sequence shown here, `RRIRHRPPRLPRPRPRPANVPRP` , give the reported shrunken log2 fold change.
Output: -0.192

Input: For the sequence shown here, `RRIRKRPPRLPRPRPRPLEAPRP` , give the reported shrunken log2 fold change.
Output: 0.505

Input: For the sequence shown here, `RRIRFRPPRLPRPRPRPYEDPRP` , give the reported shrunken log2 fold change.
Output: -0.951

Input: For the sequence shown here, `RRIRDRPPRLPRPRPRPCADPRP` , give the reported shrunken log2 fold change.
Output: 0.167
